Hello, the source for this data is ChEMBL document CHEMBL4680109, in case you need it.

# Activity per record follows
Test system: Escherichia coli
Assay: Inhibition of Escherichia coli MurA assessed as residual activity at 100 uM using UNAG and PEP as substrate preincubated for 30 mins in presence of UNAG followed by PEP addition and measured after 15 mins in presence of 5 mM cysteine by malachite green colorimetric assay relative to control
Conditions: time 45.0 min
Where a name gives a salt, the structure may show the parent alone.
Give the quantity in %, number only.

Kindly state the measured Activity obtained for S=C=NCc1ccccc1 [BENZYL ISOTHIOCYANATE] with Escherichia coli.
100

Activity of `O=C1C=CC(=O)N1C1CCCCC1` on Escherichia coli?
100

What Activity appears in the records for this compound with Escherichia coli? `O=C(CBr)c1ccccc1`
94

Fill in the recorded Activity for this compound, with Escherichia coli as test system: COC(=O)/C=C/C(=O)OC [DIMETHYL FUMARATE]
90

Quick check: Activity on Escherichia coli, item `C/C=N/Nc1cc2ccccc2cn1` ?
100

Lab request: please report Activity under test system Escherichia coli for `CC#CC(=O)OCC`
100

Please tell me: Activity of `C=CC(=O)Nc1cc(C(F)(F)F)cc(C(F)(F)F)c1` , system Escherichia coli?
100

Form field - read-out: Activity; system: Escherichia coli; submitted item: `C/C=C/C(=O)OC`
96

Item: `N#C/C=C/C(F)(F)F` Test system: Escherichia coli Read-out: Activity Value: ?
100

Item: `O=C(CCl)Nc1ccccc1` Test system: Escherichia coli Read-out: Activity Value: ?
95

So what Activity did `Cc1ccc(S)cc1` get with Escherichia coli?
94

Query Activity on Escherichia coli for `O=c1[nH]sc2ccccc12`
99

Query the reported Activity for Escherichia coli; item: `O=C(CCl)N1CCC(Cc2ccccc2)CC1`
99

# get_value(readout= Activity, system= Escherichia coli) for `FC(F)(F)c1cccc(N=C=S)c1`
99

Which Activity is reported with Escherichia coli for this entry: `CCOC(=O)C#CC(F)(F)F` ?
98

----------
Each item that follows carries a reported Activity.
Test system: Staphylococcus aureus
Assay: Inhibition of Staphylococcus aureus MurA expressed in Escherichia coli assessed as residual activity at 100 uM using UNAG and PEP as substrate preincubated for 30 mins in presence of UNAG followed by PEP addition and measured after 15 mins by malachite green colorimetric assay relative to control
Details: time 45.0 min
The response must be a number in % with no trailing unit.

Example entries begin here.
molecule	readout value
C=CS(=O)(=O)c1ccccc1 [(ETHENYLSULFONYL)BENZENE]	30
CCOC(=O)C#CC(F)(F)F	31

Need Activity of `N#C/C=C/C(F)(F)F` , thanks.
81

----------
Test system: Escherichia coli
Test: Inhibition of Escherichia coli MurA assessed as residual activity at 100 uM using UNAG and PEP as substrate preincubated for 30 mins in presence of UNAG followed by PEP addition and measured after 15 mins in presence of 5 mM cysteine by malachite green colorimetric assay relative to control
Conditions: time 45.0 min
The reader will find reported Activity values listed item by item below.
Report only the number, with the unit % understood.

// worked examples, Activity included
compound	Activity / %
COc1ccc(N=C=S)cc1	94
S=C=Nc1ccccc1 [PHENYLISOTHIOCYANATE]	91
COc1cc2c(cc1OC)CN(C(=O)CCl)CC2	98
O=C1C=CC(=O)N1Cc1ccccc1	99
O=C(CCl)c1ccccc1 [PHENACYL CHLORIDE]	93

Look at this compound and give its reported Activity. `COc1cc(NC(=O)CCl)cc(OC)c1`
96

Look up Activity: `COc1ccccc1C(=O)CBr`
100
